Listing of entries alongside the reported Emax.
TARGET DESC: κOR (Homo sapiens, UniProt P41145)
Construct: host or cells: CHO-K1
Sequence (P41145 whole entry): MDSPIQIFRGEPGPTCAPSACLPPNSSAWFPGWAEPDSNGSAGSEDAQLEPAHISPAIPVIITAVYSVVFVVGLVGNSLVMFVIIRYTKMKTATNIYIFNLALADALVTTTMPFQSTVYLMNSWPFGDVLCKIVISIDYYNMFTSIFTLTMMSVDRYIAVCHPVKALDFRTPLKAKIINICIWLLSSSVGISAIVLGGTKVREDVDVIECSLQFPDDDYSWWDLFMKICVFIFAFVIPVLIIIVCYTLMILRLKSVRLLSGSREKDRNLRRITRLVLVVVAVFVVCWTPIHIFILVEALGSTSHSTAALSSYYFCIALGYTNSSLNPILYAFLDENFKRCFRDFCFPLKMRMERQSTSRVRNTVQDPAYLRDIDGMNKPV
PROTOCOL SUMMARY: cell-based
Type: cell-based
CONDITION CONTEXT: read-out: κOR cAMP inhibition Emax ± SEM (%)
MEASURED PARAMETER: Emax (%)

molecule=C/C=C1/CN2CC[C@]34C(=C(C(=O)OC)[C@H]1C[C@H]23)Nc1ccc(-c2ccccc2)cc14 readout_unit=% qualifier_symbol== test_result=101
molecule="CC=C1CN2CCC34C(=C(C(=O)OC)C1CC23)Nc1ccc(C#N)cc14 (stereo not drawn)" readout_unit=% qualifier_symbol== test_result=102
molecule="CC=C1CN2CCC34C(=C(C(=O)OC)C1CC23)Nc1ccc([N+](=O)[O-])cc14 (stereo not drawn)" readout_unit=% qualifier_symbol== test_result=96
molecule="C=CC[N+]12CCC34C(=C(C(=O)OC)C(CC31)C(=CC)C2)Nc1ccccc14 (stereo not drawn)" readout_unit=% qualifier_symbol=< test_result=10
molecule="CCC1CN2CCC34c5ccccc5NC3C(C(=O)OC)C1CC24 (stereo not drawn) [Compound 15, 2,16,19,20-tetrahydroakuammicine]" readout_unit=% qualifier_symbol=< test_result=10
molecule="C/C=C1/C[N+]2(C)CC[C@]34C(=C(C(=O)OC)[C@H]1C[C@@H]32)Nc1ccccc14 (stereo partly drawn)" readout_unit=% qualifier_symbol=< test_result=10
